Measurement Protocol: Displacement of [3H]-biotin from Staphylococcus aureus BPL after 20 mins by scintillation counting
The entries below come with measured pKi values attached.
pKi here is simply -log10 of the concentration when that concentration is written in mol/L.

Known results for compounds:
Chemical Structure: O=C1N[C@H]2[C@H](CS[C@H]2CCCCCO)N1
Recorded Value: 5.47
--
Chemical Structure: C#CCCCCCC[C@@H]1SC[C@@H]2NC(=O)N[C@@H]21
Recorded Value: 5.62
--
Chemical Structure: C#CCCCCC[C@@H]1SC[C@@H]2NC(=O)N[C@@H]21
Recorded Value: 6.52
--
Chemical Structure: C#CCCCC[C@@H]1SC[C@@H]2NC(=O)N[C@@H]21
Recorded Value: 7.10
--
Chemical Structure: CCCCCC[C@@H]1SC[C@@H]2NC(=O)N[C@@H]21
Recorded Value: 6.28

Next:
Data request: Quick one: pKi for CCCCC[C@@H]1SC[C@@H]2NC(=O)N[C@@H]21 ?
Data returned: 7.30
